Conditions: 333.15 K; 30000 kPa; Liquid; Vibrating tube method
METRIC_NAME: mass density (kg/m3)

INSERT INTO assay_data (compound, metric_name, measured_number) VALUES
  ('CCCCCCCC[n+]1cccc(C)c1.F[B-](F)(F)F [N-octyl-3-methylpyridinium tetrafluoroborate]', 'mass density', 1088.48),
  ('CCCC[n+]1ccccc1.F[B-](F)(F)F [1-butylpyridinium tetrafluoroborate]', 'mass density', 1204.36),
  ('CCC[n+]1ccccc1Oc1ccc(Cl)c[n+]1CCOS(=O)(=O)[O-].F[B-](F)(F)F', 'mass density', 1241.9),
  ('CCCC[n+]1cccc(C)c1.N#C[N-]C#N [1-butyl-3-methylpyridinium dicyanamide]', 'mass density', 1040.39),
  ('CCCC[n+]1ccccc1.O=S(=O)([O-])C(F)(F)F [1-butylpyridinium trifluoromethanesulfonate]', 'mass density', 1306.06);
